Molecular target: PLK1 (human)
Assay: radiometric filter-binding kinase assay
Details: compound 10.0 µM
Given measured residual activity, output condition met if it is greater than or equal to 90% and condition not met if not.

Inquiry: Item CC(C)(C#N)c1ccc(N2C(=O)OCc3cnc4ccc(-c5cnc6ccccc6c5)cc4c32)cc1 with residual activity of 90% or above?
Reply text: condition not met

Inquiry: Item CC(C)C[C@H](NC(=O)CNC(=O)c1cc(Cl)ccc1Cl)B1OC(=O)CC(CC(=O)O)(C(=O)O)O1 (some centres undefined) with residual activity of 90% or above?
Reply text: condition met

Inquiry: Item Oc1ccc(/C=C/c2cc(O)cc(O)c2)cc1 with residual activity of 90% or above?
Reply text: condition not met

Inquiry: Item Cc1cc(SCc2sc(-c3ccc(C(F)(F)F)cc3)nc2C)ccc1OCC(=O)O with residual activity of 90% or above?
Reply text: condition not met

Inquiry: Item FC(F)(F)c1ccc(-c2ccc(Oc3cncc4sc(-c5nn[nH]n5)cc34)cc2)cc1 with residual activity of 90% or above?
Reply text: condition not met

Inquiry: Item O=C(N[C@@H](COc1ccc2[nH]c(=O)[nH]c2c1)c1ccccc1)c1cccn(Cc2ccc(F)c(F)c2)c1=O with residual activity of 90% or above?
Reply text: condition met

Inquiry: Item NC(=O)c1cc2c(-c3cccc(-c4ccccc4)c3)cnc(N)c2s1 with residual activity of 90% or above?
Reply text: condition met

Inquiry: Item COc1ccc2c(c1)c1c3c(c4c5ccccc5n(C)c4c1n2CC(O)CN(C)C)C(=O)NC3=O (centres undefined) with residual activity of 90% or above?
Reply text: condition not met

Inquiry: Item NC(=O)c1c(NC(=O)C2CC2)sc2c1CCCC2 with residual activity of 90% or above?
Reply text: condition met

Inquiry: Item C[C@H]1CCCC(=O)CCC/C=C/c2cc(O)cc(O)c2C(=O)O1 with residual activity of 90% or above?
Reply text: condition not met

Inquiry: Item N#Cc1c(C2CCNCC2)cc(-c2c(O)cccc2OCC2CC2)nc1N with residual activity of 90% or above?
Reply text: condition not met

Inquiry: Item CCCCCc1ccc(/C=C/[C@H](O)[C@@H](CO)NC)cc1 with residual activity of 90% or above?
Reply text: condition met

----------
Molecular target: CAMKK2 (human)
Assay: radiometric filter-binding kinase assay
Details: compound 0.01 µM
METRIC: residual activity (%)
Write the answer as a number in %, unit excluded.

Inquiry: Find the measured residual activity of C/C(=C1/C(=O)Nc2ccc(NC(N)=O)cc21)c1ccc[nH]1 and report it.
Reply text: 90

Inquiry: Find the measured residual activity of COc1cc(O)c2c(c1)[C@H]1OC1C[C@H](O)[C@H](O)C(=O)/C=C\C[C@H](C)OC2=O (stereo partly drawn) and report it.
Reply text: 102

Inquiry: Find the measured residual activity of CNc1nc(-c2ccc3c(N)n[nH]c3c2)cc(N2C[C@@H](C(=O)NC3CCCCC3)CC[C@H]2C)n1 and report it.
Reply text: 112

----------
Answer each item with its documented residual activity.
Biological target: MAP3K7 TAB1 (human) (UniProt Q15750+O43318)
Sequence (O43318 whole entry, looked up): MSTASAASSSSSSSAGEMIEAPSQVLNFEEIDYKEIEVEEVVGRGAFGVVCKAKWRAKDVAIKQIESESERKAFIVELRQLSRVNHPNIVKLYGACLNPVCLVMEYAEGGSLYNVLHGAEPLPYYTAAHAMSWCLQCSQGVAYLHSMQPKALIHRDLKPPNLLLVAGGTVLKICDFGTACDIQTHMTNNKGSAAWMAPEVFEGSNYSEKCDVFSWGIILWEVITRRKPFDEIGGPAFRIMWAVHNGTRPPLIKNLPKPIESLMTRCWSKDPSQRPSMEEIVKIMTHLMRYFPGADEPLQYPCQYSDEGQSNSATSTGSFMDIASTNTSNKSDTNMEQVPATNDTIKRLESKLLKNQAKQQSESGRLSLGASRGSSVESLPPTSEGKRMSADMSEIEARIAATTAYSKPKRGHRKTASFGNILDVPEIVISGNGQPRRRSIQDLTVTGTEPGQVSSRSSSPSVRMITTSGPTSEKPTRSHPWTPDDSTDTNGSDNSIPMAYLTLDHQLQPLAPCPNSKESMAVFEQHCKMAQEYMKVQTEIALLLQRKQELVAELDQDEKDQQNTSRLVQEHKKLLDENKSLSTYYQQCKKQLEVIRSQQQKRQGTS
Sequence (Q15750 whole entry, looked up): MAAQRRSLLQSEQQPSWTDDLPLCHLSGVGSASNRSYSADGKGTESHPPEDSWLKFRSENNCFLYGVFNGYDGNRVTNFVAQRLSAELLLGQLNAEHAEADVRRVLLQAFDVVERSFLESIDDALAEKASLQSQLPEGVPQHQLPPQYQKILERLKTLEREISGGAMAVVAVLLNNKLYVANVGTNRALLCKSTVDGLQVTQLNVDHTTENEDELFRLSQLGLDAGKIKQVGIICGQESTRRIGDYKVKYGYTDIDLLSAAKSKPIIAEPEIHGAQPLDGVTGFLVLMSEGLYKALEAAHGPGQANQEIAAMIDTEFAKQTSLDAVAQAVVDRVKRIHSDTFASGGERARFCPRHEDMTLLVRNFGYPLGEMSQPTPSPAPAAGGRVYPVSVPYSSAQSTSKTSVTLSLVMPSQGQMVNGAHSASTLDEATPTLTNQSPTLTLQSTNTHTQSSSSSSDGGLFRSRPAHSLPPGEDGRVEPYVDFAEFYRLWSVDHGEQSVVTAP
Test: radiometric filter-binding kinase assay
Details: compound 1.0 µM
Write the answer as a number in %, unit excluded.

Inquiry: Find the measured residual activity of Cc1nc(-c2ccc(OCC(C)C)c(C#N)c2)sc1C(=O)O and report it.
Reply text: 88

Inquiry: Find the measured residual activity of Cc1ccc(Sc2cnc(Nc3cccc(Br)n3)s2)cc1C(=O)N1CCN(C(=O)CN)CC1 and report it.
Reply text: 84

Inquiry: Find the measured residual activity of O=C(N[C@@H](COc1ccc2[nH]c(=O)[nH]c2c1)c1ccccc1)c1cccn(Cc2ccc(F)c(F)c2)c1=O and report it.
Reply text: 103
